# credit: patent US20160362408A1

Assign MEC to each entry below.
Target: recombinant guanylate cyclase reporter cell line (Rattus norvegicus, UniProt P19686+P20595)
Construct: expressed in transfected cells
Sequence (P19686 whole entry): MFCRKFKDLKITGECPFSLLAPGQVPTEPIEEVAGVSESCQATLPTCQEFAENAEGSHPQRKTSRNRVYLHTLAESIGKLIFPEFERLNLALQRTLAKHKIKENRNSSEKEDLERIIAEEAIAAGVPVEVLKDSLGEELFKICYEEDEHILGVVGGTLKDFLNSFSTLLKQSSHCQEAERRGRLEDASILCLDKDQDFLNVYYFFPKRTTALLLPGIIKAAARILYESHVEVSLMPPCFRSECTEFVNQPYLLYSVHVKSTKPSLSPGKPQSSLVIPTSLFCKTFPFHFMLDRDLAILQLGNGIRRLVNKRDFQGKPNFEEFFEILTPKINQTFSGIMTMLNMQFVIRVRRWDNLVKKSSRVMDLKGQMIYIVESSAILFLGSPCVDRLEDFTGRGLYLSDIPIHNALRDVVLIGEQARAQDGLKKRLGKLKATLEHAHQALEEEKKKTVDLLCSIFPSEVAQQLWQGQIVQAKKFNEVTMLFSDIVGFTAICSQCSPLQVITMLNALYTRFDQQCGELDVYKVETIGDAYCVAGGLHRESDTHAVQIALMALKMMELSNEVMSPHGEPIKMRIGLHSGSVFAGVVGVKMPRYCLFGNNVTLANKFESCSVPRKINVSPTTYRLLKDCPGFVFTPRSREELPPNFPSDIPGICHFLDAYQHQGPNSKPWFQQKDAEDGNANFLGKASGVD
Sequence (P20595 whole entry): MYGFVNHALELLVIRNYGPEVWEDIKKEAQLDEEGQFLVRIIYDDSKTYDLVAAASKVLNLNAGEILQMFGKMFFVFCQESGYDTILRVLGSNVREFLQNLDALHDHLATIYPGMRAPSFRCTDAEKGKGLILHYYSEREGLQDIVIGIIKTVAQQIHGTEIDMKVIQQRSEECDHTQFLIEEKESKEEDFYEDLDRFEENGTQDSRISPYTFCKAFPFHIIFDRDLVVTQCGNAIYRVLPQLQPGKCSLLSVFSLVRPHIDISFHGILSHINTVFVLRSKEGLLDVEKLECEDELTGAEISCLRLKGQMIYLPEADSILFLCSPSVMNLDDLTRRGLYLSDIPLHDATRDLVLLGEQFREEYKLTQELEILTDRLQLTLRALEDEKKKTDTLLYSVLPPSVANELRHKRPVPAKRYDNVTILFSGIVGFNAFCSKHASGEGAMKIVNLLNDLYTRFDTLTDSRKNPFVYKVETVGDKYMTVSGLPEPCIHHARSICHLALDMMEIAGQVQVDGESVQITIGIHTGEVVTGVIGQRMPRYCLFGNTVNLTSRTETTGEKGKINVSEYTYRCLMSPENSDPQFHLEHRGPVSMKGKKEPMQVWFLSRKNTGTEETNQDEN
Test: Effect on a recombinant guanylate cyclase reporter cell line
Assay type: cell-based
Settings: MEC = minimum effective concentration; in some cases mean values for individual determinations
Where a name gives a salt, the structure may show the parent alone.
Note: unit µM is implicit; provide only the numeric part.

## Input Record request: MEC value, item Cc1n[nH]c(C)c1NC(=O)c1c(C)nc2c(OCc3cccc(F)c3F)cc(Cl)cn12
## Output 1.0

## Input Here is the next compound: Cc1cc(OCc2c(F)cccc2F)c2nc(C)c(C(=O)Nc3ccnc4ccc(F)cc34)n2c1
## Output 0.01

## Input Follow-up item: Cc1nc2c(OCc3c(F)cccc3F)cccn2c1C(=O)Nc1cnn(C)c1
## Output 1.0

## Input Request: Cc1cc(OCc2c(F)cccc2F)c2nc(C)c(C(=O)Nc3cnn(CC(F)(F)F)c3)n2c1
## Output 0.1

## Input Now give it for Cc1cc(OCc2c(F)cccc2F)c2nc(C)c(C(=O)Nc3c(C)n[nH]c3C)n2c1 too.
## Output 0.65

## Input Can you handle Cc1cc(OCCC(C(F)(F)F)C(F)(F)F)c2nc(C)c(C(=O)Nc3c(C)n[nH]c3C(F)(F)F)n2c1 next?
## Output 2.0

## Input Another: Cc1n[nH]c(C)c1NC(=O)c1c(C)nc2c(OCC3CCCCC3)cccn12
## Output 0.1

## Input Try the compound Cc1nc2c(OCc3c(F)cccc3F)cccn2c1C(=O)Nc1c(-c2ccccc2)noc1C
## Output 1.0

## Input And then Cc1nc(NC(=O)c2c(C)nc3c(OCc4c(F)cccc4F)cccn23)oc1C , what is it?
## Output 3.0

## Input Then COc1ccc(C)c(NC(=O)c2c(C)nc3c(OCc4c(F)cccc4F)cccn23)c1 ?
## Output 0.3

## Input Queued: Cc1nc2c(OCc3c(F)cccc3F)cccn2c1C(=O)Nc1ccnc2cc(C(F)(F)F)ccc12
## Output 1.65

## Input Field entry: Cc1nc2c(OCc3c(F)cccc3F)cccn2c1C(=O)Nc1cnn(C(C)C)c1
## Output 0.3

## Input Cool, now Cc1nc2c(OCc3c(F)cccc3F)cccn2c1C(=O)Nc1cnn(CCN2CCC(O)CC2)c1
## Output 10

## Input Follow-up item: Cc1nc2c(OCc3c(F)cccc3F)cccn2c1C(=O)Nc1c(C(F)(F)F)nn(CCO)c1C
## Output 0.5

## Input Then Cc1nc2c(OCc3c(F)cccc3F)cccn2c1C(=O)Nc1ccncc1C(F)(F)F [Example 123, trifluoroacetate] ?
## Output 1.0

## Input Entry to check: CCc1cc(NC(=O)c2c(C)nc3c(OCc4c(F)cccc4F)cccn23)ccn1
## Output 0.1

## Input Try this compound too: Cc1nc2c(OCc3c(F)cccc3F)cc(Cl)cn2c1C(=O)Nc1cnn(CCO)c1
## Output 0.1

## Input Now give it for Cc1nc2c(OCc3c(F)cccc3F)cccn2c1C(=O)Nc1cccnc1 too.
## Output 0.3

## Input Continue with Cc1nc2c(OCc3c(F)cccc3F)cccn2c1C(=O)Nc1cnn(CCN2CCCC2)c1
## Output 3.0

## Input Same again, this time with Cc1nc2c(OCc3c(F)cccc3F)cccn2c1C(=O)Nc1ccc(Cl)c2ccccc12
## Output 1.0

## Input Next record, please: CCn1ccc(NC(=O)c2c(C)nc3c(OCc4c(F)cccc4F)cccn23)n1
## Output 1.0

## Input Same for Cc1nc2c(OCc3c(F)cccc3F)cccn2c1C(=O)Nc1cccc2cnccc12
## Output 0.3

## Input Now this one: Cc1nc2c(OCc3c(F)cccc3F)cccn2c1C(=O)Nc1ccc2c(c1)OCC(=O)N2
## Output 0.1

## Input Also, Cc1nc2c(OCc3c(F)cccc3F)cccn2c1C(=O)Nc1ccc(N2CCN(C)CC2)cc1 please.
## Output 3.0

## Input Now the compound Cc1nc2c(OCc3c(F)cccc3F)cccn2c1C(=O)Nc1cccc(Cl)c1C
## Output 0.3

## Input And Cc1nn(CC(F)(F)F)cc1NC(=O)c1c(C)nc2c(OCc3c(F)cccc3F)cccn12 ?
## Output 1.0

## Input And what about the compound Cc1nc2c(OCc3c(F)cccc3F)cccn2c1C(=O)Nc1ccc(NCCO)cc1 ?
## Output 1.0

## Input # repeat for Cc1cc(OCc2c(F)cccc2F)c2nc(C)c(C(=O)Nc3ccccc3CN)n2c1
## Output 0.3

## Input Same lookup for Cc1cc(OCc2c(F)cccc2F)c2nc(C)c(C(=O)Nc3cnn(COCC(F)(F)F)c3)n2c1 , please.
## Output 0.1

## Input Another: Cc1nc2c(OCc3c(F)cccc3F)cccn2c1C(=O)Nc1cnn(CCN2CCN(C)CC2)c1
## Output 10

## Input Next: Cc1nc2c(OCc3c(F)cccc3F)cccn2c1C(=O)Nc1cnn(CCN2CCC(O)C2)c1 (racemic)
## Output 10

## Input Could you do the same for Cc1nc2c(OCc3c(F)cccc3F)cccn2c1C(=O)Nc1nnc(C2CC2)s1 , please?
## Output 3.0

## Input Another compound: Cc1nc2c(OCc3c(F)cccc3F)cc(Cl)cn2c1C(=O)Nc1cnn(CC(F)(F)F)c1
## Output 1.0

###

Target: recombinant guanylate cyclase reporter cell line (Rattus norvegicus, UniProt P19686+P20595)
Construct: expressed in transfected cells
Assay: Effect on a recombinant guanylate cyclase reporter cell line
Type: cell-based
Conditions: MEC = minimum effective concentration; in some cases mean values for individual determinations
Kindly supply the reported MEC values for the records listed here.
Give the quantity in µM, number only.

## Input Reported MEC, molecule Cc1cccc(C)c1NC(=O)c1c(C)nc2c(OCc3c(F)cccc3F)cccn12 : ____
## Output 0.3

## Input // same read-out, input: CCOc1cc(NC(=O)c2c(C)nc3c(OCc4c(F)cccc4F)cccn23)cc(C)n1
## Output 0.3

## Input Next: Cc1nc2c(OCc3c(F)cccc3F)cccn2c1C(=O)Nc1cnn(CCF)c1
## Output 1.0

## Input Another: Cc1nc2c(OCc3c(F)cccc3F)cccn2c1C(=O)Nc1ccccc1
## Output 0.3

## Input Also Cc1cc(OCc2c(F)cccc2F)c2nc(C)c(C(=O)Nc3cccc(NS(C)(=O)=O)c3)n2c1 ?
## Output 3.0

## Input Input Cc1nc2c(OCc3c(F)cccc3F)cccn2c1C(=O)Nc1nn(C)c2ccc(C(F)(F)F)cc12
## Output 1.0

## Input Note, next up: Cc1noc(C)c1NC(=O)c1c(C)nc2c(OCc3c(F)cccc3F)cccn12
## Output 0.65

###

Target: recombinant guanylate cyclase reporter cell line (Rattus norvegicus, UniProt P19686+P20595)
Construct: expressed in transfected cells
Assay: Effect on a recombinant guanylate cyclase reporter cell line
Format: cell-based
Details: MEC = minimum effective concentration; in some cases mean values for individual determinations
Assignment: determine reported MEC for the given molecules.
Field: value (include unit after the number)

## Input Which MEC value is on record for Cc1nc2c(OCc3c(F)cccc3F)cccn2c1C(=O)Nc1cccc2ccccc12 [Example 56] ?
## Output 0.1 µM

## Input // repeat for Cc1nc2c(OCc3c(F)cccc3F)cccn2c1C(=O)Nc1cnn(CC(F)(F)F)c1 [Example 30] and report
## Output 0.3 µM

## Input Lookup Cc1nc2c(OCc3c(F)cccc3F)cccn2c1C(=O)Nc1c(C(F)(F)F)n[nH]c1C [Example 76]
## Output 0.1 µM

## Input Next up: Cc1nc2c(OCc3c(F)cccc3F)cccn2c1C(=O)Nc1ccc(C)c2ncccc12 [Example 72]
## Output 0.3 µM

## Input // repeat for Cc1nc2c(OCc3c(F)cccc3F)cccn2c1C(=O)Nc1cnn(CCS(C)(=O)=O)c1 [Example 135] and report
## Output 3.0 µM

## Input Same question for Cc1nc2c(OCc3c(F)cccc3F)cccn2c1C(=O)Nc1cccc(C(C)O)c1 (centres unmarked) [Example 17] please.
## Output 0.3 µM

## Input And for Cc1nc2c(OCc3c(F)cccc3F)cccn2c1C(=O)Nc1cnn(CCN2CCOCC2)c1 [Example 132] ?
## Output 1.0 µM

## Input Also need Cc1cc(OCc2c(F)cccc2F)c2nc(C)c(C(=O)Nc3ccc(F)cc3CN)n2c1 [Example 113] , thanks.
## Output 0.3 µM

###

Molecular target: recombinant guanylate cyclase reporter cell line (Rattus norvegicus, UniProt P19686+P20595)
Construct: expressed in transfected cells
Assay: Effect on a recombinant guanylate cyclase reporter cell line
Type: cell-based
Conditions: MEC = minimum effective concentration; in some cases mean values for individual determinations
Would you mind labelling by MEC? At or over 1 µM is Yes, under is No.

## Input # check: MEC of Cc1n[nH]c(C)c1NC(=O)c1c(C)nc2c(OCc3c(F)cccc3F)cccn12 [Example 29] is greater than or equal to 1 µM
## Output No

## Input Thanks! And Cc1nc2c(OCc3c(F)cccc3F)cc(Cl)cn2c1C(=O)Nc1ccc(N2CCNCC2)c(F)c1 [Example 109] ?
## Output Yes

## Input Let us now turn to Cc1nc2c(OCc3c(F)cccc3F)cccn2c1C(=O)Nc1cnn(Cc2cccc(F)c2)c1 [Example 35]
## Output Yes

## Input Please answer likewise for Cc1nn(CCO)c(C)c1NC(=O)c1c(C)nc2c(OCc3c(F)cccc3F)cc(Cl)cn12 [Example 42]
## Output No

## Input What would you report for Cc1ccc2c(NC(=O)c3c(C)nc4c(OCc5c(F)cccc5F)cccn34)c(C)ccc2n1 [Example 63] ?
## Output No

## Input Same for O=C(Nc1cnn(CCO)c1)c1c(C2CC2)nc2c(OCc3c(F)cccc3F)cccn12 [Example 142]
## Output Yes

## Input What do you have for Cc1nc2c(OCc3c(F)cccc3F)cccn2c1C(=O)Nc1ccnc2ccc(C(F)(F)F)cc12 [Example 79] ?
## Output No

## Input Repeat for the following compound: Cc1nc2c(OCc3c(F)cccc3F)cc(Cl)cn2c1C(=O)Nc1ccccc1CN [Example 104]
## Output Yes

## Input And for Cc1ccc2c(NC(=O)c3c(C)nc4c(OCc5c(F)cccc5F)cccn34)cccc2n1 [Example 64] ?
## Output No

## Input Another compound: Cc1nc2c(OCc3c(F)cccc3F)cccn2c1C(=O)Nc1c(C(C)(C)O)n[nH]c1C [Example 88]
## Output No
